Listed here are compounds together with their documented Population Fragmented Nuclei (%).
Tested on: U2OS
Experiment: Multiplex assay against U2OS
Assay type: toxicity, cell-based
Conditions: human, 12 h, 1 µM, compound concentration 1 uM, replicate 2
Report the figure along with its unit, number first.

Some compounds with recorded Population Fragmented Nuclei (%):
{"compound": "C=CC(=O)Nc1cc2c(Nc3ccc(F)c(Cl)c3)ncnc2cc1OCCCN1CCOCC1.Cl.Cl [CANERTINIB DIHYDROCHLORIDE]", "data-value": "10%"}
{"compound": "CN1CCN(CCOc2cc(OC3CCOCC3)c3c(Nc4c(Cl)ccc5c4OCO5)ncnc3c2)CC1", "data-value": "9%"}
{"compound": "C=CC(=O)Nc1cccc(C(=O)Nc2ccc(Nc3cc(-c4[nH]c(SC)nc4C)ccn3)cc2)c1", "data-value": "2%"}
{"compound": "NC(=O)Nc1cc(-c2cccc(F)c2)sc1C(=O)N[C@H]1CCCNC1", "data-value": "8%"}
{"compound": "C[C@@]1(C(=O)Nc2ccc(F)nc2)CCCN1c1nc(Nc2cc(C3CC3)n[nH]2)c2cccn2n1", "data-value": "36%"}

# value of Population Fragmented Nuclei (%), U2OS, item "CN(C)CC#Cc1ccc(OCCCc2sc(N3CCc4cccc(C(=O)Nc5nc6ccccc6s5)c4C3)nc2C(=O)O)c(F)c1" = 39%

# value of Population Fragmented Nuclei (%), U2OS, item COc1cccc([C@@H](C)NCCCc2ccccc2Cl)c1.Cl [TECALCET HYDROCHLORIDE] = 10%

# value of Population Fragmented Nuclei (%), U2OS, item "Cc1[nH]c(/C=C2\C(=O)Nc3ccc(S(=O)(=O)N(C)c4cccc(Cl)c4)cc32)c(C)c1C(=O)N1CCN(C)CC1" = 16%

# value of Population Fragmented Nuclei (%), U2OS, item "Cc1nc(-c2cn3c(n2)-c2ccc(-c4cnn(C(C)(C)C(N)=O)c4)cc2OCC3)n(C(C)C)n1" = 12%

The measured values listed here are drawn from ChEMBL document CHEMBL4689842.
